Entries and their Mean Diameter of the Inhibition Zone
Test system: P. aeruginosa ATCC 27853
test.protocol: Inhibition zone, paper disk/agar diffusion
Type: cell-based
condition.label: P. aeruginosa; Na = no activity
recorded.endpoint: Mean Diameter of the Inhibition Zone (mm)

[[record]]
smiles_code = "N#C/C(=C\\c1ccc(O)cc1)C(=O)Nc1ccc(S(=O)(=O)NC(=N)N)cc1"
system = "P. aeruginosa ATCC 27853"
recorded_endpoint = "Mean Diameter of the Inhibition Zone"
measurement = 20

[[record]]
smiles_code = "COc1ccc(/C=C(\\C#N)C(=O)Nc2ccc(S(=O)(=O)NC(=N)N)cc2)cc1"
system = "P. aeruginosa ATCC 27853"
recorded_endpoint = "Mean Diameter of the Inhibition Zone"
measurement = 21

[[record]]
smiles_code = "N#Cc1c(N)cc(N)n(-c2ccc(S(=O)(=O)NC(=N)N)cc2)c1=O"
system = "P. aeruginosa ATCC 27853"
recorded_endpoint = "Mean Diameter of the Inhibition Zone"
measurement = 12

[[record]]
smiles_code = "Cc1cc(C)n(-c2ccc(S(=O)(=O)NC(=N)N)cc2)c(=O)c1C#N"
system = "P. aeruginosa ATCC 27853"
recorded_endpoint = "Mean Diameter of the Inhibition Zone"
measurement = 25


* * *

System: E. coli ATCC 25922
test.protocol: MIC and MBC determination
Assay type: cell-based
condition.label: Escherichia coli, ATCC25922; E. coli; read-out: MIC
Doc: threshold 20 µM (exclusive). Items with MIC beneath it return yes; others return no.

[[record]]
smiles_code = "COc1ccc(/C=C(\\C#N)C(=O)Nc2ccc(S(=O)(=O)NC(=N)N)cc2)cc1"
class_name = "no"

[[record]]
smiles_code = "N#Cc1c(-c2ccc(Cl)cc2)c(C#N)c(=O)n(-c2ccc(S(=O)(=O)NC(=N)N)cc2)c1N"
class_name = "yes"

[[record]]
smiles_code = "N#CC(=Cc1ccc(Cl)cc1)C(=O)Nc1ccc(S(=O)(=O)NC(=N)N)cc1"
class_name = "no"

[[record]]
smiles_code = "COc1ccc(/C=C(\\C#N)C(=O)Nc2ccc(S(=O)(=O)NC(=N)N)cc2)cc1O"
class_name = "yes"

[[record]]
smiles_code = "Cc1cc(C)n(-c2ccc(S(=O)(=O)NC(=N)N)cc2)c(=O)c1C#N"
class_name = "no"


* * *

Tested on: P. aeruginosa ATCC 27853
test.protocol: Inhibition zone, paper disk/agar diffusion
Assay type: cell-based
condition.label: P. aeruginosa; Na = no activity
From the text: The antimicrobial activity performed at the bacteriology laboratory, Botany and Microbiology Department, Faculty of Science, Al-Azhar University, Cairo, Egypt. The inhibition zone (IZ) of the tested derivatives expressed as the diameter (mm) according to the agar plate diffusion method.
Lab note: compare Mean Diameter of the Inhibition Zone with 20 mm, writing criterion met if less and criterion not met if equal or more.

[[record]]
molecule = "N#Cc1c(-c2ccc(O)cc2)c(C#N)c(=O)n(-c2ccc(S(=O)(=O)NC(=N)N)cc2)c1N [Compound 3c]"
class_name = "criterion met"

[[record]]
molecule = "Cc1cc2csc(N)c2c(=O)n1-c1ccc(S(=O)(=O)NC(=N)N)cc1 [Compound 10]"
class_name = "criterion not met"

[[record]]
molecule = "COc1ccc(C=Cc2cc(C)n(-c3ccc(S(=O)(=O)NC(=N)N)cc3)c(=O)c2C#N)cc1 [Compound 9b]"
class_name = "criterion met"

[[record]]
molecule = "COc1ccc(-c2c(C(=O)Nc3ccc(S(=O)(=O)NC(=N)N)cc3)c(N)n(C3CCCCC3)c(=O)c2C#N)cc1 [Compound 4]"
class_name = "criterion not met"

[[record]]
molecule = "COc1ccc(/C=C(\\C#N)C(=O)Nc2ccc(S(=O)(=O)NC(=N)N)cc2)cc1O [Compound 2d]"
class_name = "criterion not met"

[[record]]
molecule = "N=C(N)NS(=O)(=O)c1ccc(NC(=O)c2cc3ccccc3oc2=N)cc1 [Compound 11]"
class_name = "criterion not met"

